Every entry's value here was drawn from patent US20060069132A1.

- System: eastern black nightshade
- Method Summary: Test C pre-/postemergence herbicide test
- Assay type: in vivo, Solanum ptycanthum
- Condition Notes: 62 g ai/ha; preemergence; scale 0 to 100
Output 1 (yes) for records whose Plant response rating, Nightshade is lower than 80, 0 (no) for records at or above 80.

Ask: Lab note: confirm whether the reported Plant response rating, Nightshade for this compound is below 80, equality not counting. compound: `CCc1nc(C(C)(C)C)sc1C(=O)Nc1cccc(C(=O)NCC2CC2)c1`
Result: 1 (yes)

Ask: Lab note: confirm whether the reported Plant response rating, Nightshade for this compound is below 80, equality not counting. compound: `CCc1nn(C(C)C)nc1C(=O)Nc1cccc(C(=O)N(C)CC)c1`
Result: 0 (no)

Ask: Lab note: confirm whether the reported Plant response rating, Nightshade for this compound is below 80, equality not counting. compound: `CCNC(=O)c1ccc(F)c(NC(=O)c2cc(C3(C)CC3)nn2CC)c1`
Result: 0 (no)

Ask: Lab note: confirm whether the reported Plant response rating, Nightshade for this compound is below 80, equality not counting. compound: CCN1N=C(C(C)(C)C)CC1C(=O)Nc1cc(C(=O)N2CC=CC2)ccc1F (racemic)
Result: 1 (yes)

Ask: Lab note: confirm whether the reported Plant response rating, Nightshade for this compound is below 80, equality not counting. compound: `CCn1nc(C(C)(C)C)cc1C(=O)Nc1ccc(OC)c(OC)c1`
Result: 0 (no)

Ask: Lab note: confirm whether the reported Plant response rating, Nightshade for this compound is below 80, equality not counting. compound: `CCN(CC)C(=O)c1cccc(NC(=O)c2sc(C(C)(C)C)nc2C)c1`
Result: 0 (no)
